pKi values for the compounds below.
target: Rat brain mu opioid receptor (Rattus norvegicus); construct: from tissue; host or cells: forebrain of male Sprague Dawley rats; assay: Rat brain mu opioid receptor binding assay ([3H]DAMGO); conditions: read-out: rMOR Ki
Sequence (P33535 whole entry): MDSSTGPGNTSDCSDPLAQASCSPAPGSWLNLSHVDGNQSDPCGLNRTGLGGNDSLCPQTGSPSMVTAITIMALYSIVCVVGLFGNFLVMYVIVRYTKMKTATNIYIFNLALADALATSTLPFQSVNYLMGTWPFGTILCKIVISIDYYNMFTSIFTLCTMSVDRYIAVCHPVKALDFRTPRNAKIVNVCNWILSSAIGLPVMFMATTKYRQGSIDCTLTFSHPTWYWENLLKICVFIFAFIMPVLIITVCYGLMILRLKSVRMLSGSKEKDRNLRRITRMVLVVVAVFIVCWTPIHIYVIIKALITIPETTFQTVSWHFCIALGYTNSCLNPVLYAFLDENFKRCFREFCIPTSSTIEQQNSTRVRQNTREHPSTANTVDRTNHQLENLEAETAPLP
pKi: −log10 of the molar value.
assay-endpoint: pKi

compound="CCNC(=O)c1ccc2c(c1)Oc1ccccc1C2=C1CC2CCC(C1)N2 (single isomer, unassigned) [Compound 56]" qualifier_operator== meas_value=6.15
compound="C=CCN1CCC(=C2c3ccccc3Oc3cc(C(=O)N(CC)CC)ccc32)CC1 [Compound 8]" qualifier_operator== meas_value=5.55
compound="CCNC(=O)c1ccc2c(c1)OCc1ccccc1C2=C1CCNCC1 [Compound 11]" qualifier_operator== meas_value=5.25
compound="CCN(CC)C(=O)c1ccc2c(c1)Oc1ccccc1C2=C1CCN(Cc2ccccc2O)CC1 [Compound 30]" qualifier_operator== meas_value=6.04
compound="CCN(CC)C(=O)c1ccc2c(c1)Oc1ccccc1C2=C1CC2CCC(C1)N2 (single isomer, unassigned) [Compound 53]" qualifier_operator=< meas_value=7.00
compound="CCNC(=O)c1ccc2c(c1)OCc1ccccc1C2=C1CC2CCC(C1)N2CCc1ccccc1 [Compound 26]" qualifier_operator== meas_value=7.81
compound="CCNC(=O)c1ccc2c(c1)OCc1ccccc1C2=C1CCN(Cc2cccs2)CC1 [Compound 13]" qualifier_operator== meas_value=5.72
compound="CCN(CC)C(=O)c1ccc2c(c1)Oc1ccccc1C2C1CCNCC1 (centres unmarked) [Compound 42]" qualifier_operator== meas_value=5.06

---

molecular target: Rat brain delta opioid receptor (Rattus norvegicus, UniProt P33533); construct: from tissue; host or cells: rat brain; assay: Rat brain delta opioid receptor binding; conditions: rDOR Ki
Sequence (P33533 whole entry): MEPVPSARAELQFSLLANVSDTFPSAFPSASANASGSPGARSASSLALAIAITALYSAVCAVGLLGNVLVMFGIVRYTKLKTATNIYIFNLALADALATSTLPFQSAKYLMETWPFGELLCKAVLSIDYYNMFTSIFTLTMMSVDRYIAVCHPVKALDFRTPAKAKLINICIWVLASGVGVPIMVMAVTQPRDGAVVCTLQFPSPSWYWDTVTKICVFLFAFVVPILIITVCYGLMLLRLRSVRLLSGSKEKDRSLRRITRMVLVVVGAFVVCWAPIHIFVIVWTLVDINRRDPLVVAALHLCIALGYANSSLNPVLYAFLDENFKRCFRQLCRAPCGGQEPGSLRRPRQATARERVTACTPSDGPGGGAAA
Ki values for the molecules below.
assay-endpoint: Ki (nM)

molecule_smiles=CCN(CC)C(=O)c1ccc2c(c1)Oc1c(OC)cccc1C2=C1CC2CCC(C1)N2 meas_value=0.74
molecule_smiles=CCN(CC)C(=O)c1ccc2c(c1)OCc1ccccc1C2=C1CCNCC1 meas_value=0.91
molecule_smiles=CCN(CC)C(=O)c1ccc2c(c1)Oc1ccc(-c3ccsc3)cc1C2=C1CC2CCC(C1)N2 meas_value=836
molecule_smiles=CCN(CC)C(=O)c1ccc2c(c1)Sc1ccccc1C2=C1CC2CCC(C1)N2Cc1c[nH]cn1 meas_value=3.79
molecule_smiles=CCN(CC)C(=O)c1ccc2c(c1)Oc1ccccc1C2=C1CC2CCC(C1)N2CCOC meas_value=8.43
molecule_smiles=CCN(CC)C(=O)c1ccc2c(c1)Oc1ccccc1C2=C1CCN(Cc2ccccc2O)CC1 meas_value=10.9
molecule_smiles=CN(C)C(=O)c1ccc2c(c1)Oc1ccccc1C2=C1CC2CCC(C1)N2 meas_value=397
molecule_smiles=CCN(CC)C(=O)c1ccc2c(c1)Oc1ccc(-c3ccncc3)cc1C2=C1CC2CCC(C1)N2 meas_value=3000

---

Ki values for the molecules below.
biological target: Rat brain mu opioid receptor (Rattus norvegicus); construct: from tissue; host or cells: forebrain of male Sprague Dawley rats; assay: Rat brain mu opioid receptor binding assay ([3H]DAMGO); conditions: rMOR Ki
assay-endpoint: Ki

molecule_smiles=CC(C)CN(C)C(=O)c1ccc2c(c1)Oc1ccccc1C2=C1CC2CCC(C1)N2 system_under_test="Rat brain mu opioid receptor (Rattus norvegicus)" meas_value="3.34 µM"
molecule_smiles=CN(C)C(=O)c1ccc2c(c1)Oc1ccccc1C2=C1CC2CCC(C1)N2 system_under_test="Rat brain mu opioid receptor (Rattus norvegicus)" meas_value="5.26 µM"
molecule_smiles=CCN(CC)C(=O)c1ccc2c(c1)Sc1ccccc1C2=C1CC2CCC(C1)N2Cc1c[nH]cn1 system_under_test="Rat brain mu opioid receptor (Rattus norvegicus)" meas_value="0.848 µM"
molecule_smiles=CCN(CC)C(=O)c1ccc2c(c1)Oc1ccc(C)cc1C2=C1CC2CCC(C1)N2 system_under_test="Rat brain mu opioid receptor (Rattus norvegicus)" meas_value="10.9 µM"

---

molecular target: delta opioid receptor (Mus musculus, UniProt P32300); construct: host or cells: NG108-15 cells (membranes, purchased); test: [35S]GTPγS binding assay in NG108-15 cell membrane; assay type: biochemical; conditions: delta opioid receptor GTPγS functional assay; read-out: DOR GTPγS EC50
Sequence (P32300 whole entry): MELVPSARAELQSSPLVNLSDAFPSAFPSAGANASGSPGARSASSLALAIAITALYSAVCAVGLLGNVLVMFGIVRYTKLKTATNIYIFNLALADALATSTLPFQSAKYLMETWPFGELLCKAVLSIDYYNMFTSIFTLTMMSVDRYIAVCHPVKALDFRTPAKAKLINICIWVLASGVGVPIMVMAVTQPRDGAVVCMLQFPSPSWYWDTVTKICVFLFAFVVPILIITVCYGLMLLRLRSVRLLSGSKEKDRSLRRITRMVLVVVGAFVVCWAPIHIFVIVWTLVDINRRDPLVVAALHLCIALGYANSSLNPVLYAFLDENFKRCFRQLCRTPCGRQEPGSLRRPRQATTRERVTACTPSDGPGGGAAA
assay-endpoint: EC50

molecule="CCNC(=O)c1ccc2c(c1)Oc1ccccc1C2=C1CC2CCC(C1)N2 (single isomer, unassigned)" meas_value="> 1000 nM"

---

biological target: Rat brain delta opioid receptor (Rattus norvegicus, UniProt P33533); construct: from tissue; host or cells: rat brain; assay: Rat brain delta opioid receptor binding; conditions: rDOR Ki
pKi: −log10 of the molar value.
assay-endpoint: pKi

compound="CCN(CC)C(=O)c1ccc2c(c1)Oc1ccccc1C2=C1CC2CCC(C1)N2Cc1ccoc1 [Compound 25]" meas_value=11.00
compound="CCN(CC)C(=O)c1ccc2c(c1)Oc1ccccc1C2=C1CCN(C=Nc2ccccc2)CC1 [Compound 36]" meas_value=9.10
compound="C=CCN1CCC(=C2c3ccccc3Oc3cc(C(=O)N(CC)CC)ccc32)CC1 [Compound 8]" meas_value=8.68
compound="CCN(CC)C(=O)c1ccc2c(c1)Oc1ccccc1C2=C1CCNCC1 [Compound 3]" meas_value=9.02

---

biological target: Rat brain delta opioid receptor (Rattus norvegicus, UniProt P33533); construct: from tissue; host or cells: rat brain; experiment: Rat brain delta opioid receptor binding; details: rDOR Ki
assay-endpoint: Ki (nM)

compound=CCN(CC)C(=O)c1ccc2c(c1)Oc1ccc(-c3ccoc3)cc1C2=C1CC2CCC(C1)N2 system_under_test="Rat brain delta opioid receptor (Rattus norvegicus, UniProt P33533)" assay_endpoint=Ki meas_value=1760
compound=CCN(CC)C(=O)c1ccc2c(c1)Oc1c(Br)cccc1C2=C1CC2CCC(C1)N2 system_under_test="Rat brain delta opioid receptor (Rattus norvegicus, UniProt P33533)" assay_endpoint=Ki meas_value=2.28
compound=CCN(CC)C(=O)c1ccc2c(c1)Oc1ccccc1C2=C1CC2CCC(C1)N2C system_under_test="Rat brain delta opioid receptor (Rattus norvegicus, UniProt P33533)" assay_endpoint=Ki meas_value=48.4
compound=C#CCN1CCC(=C2c3ccccc3Oc3cc(C(=O)N(CC)CC)ccc32)CC1 system_under_test="Rat brain delta opioid receptor (Rattus norvegicus, UniProt P33533)" assay_endpoint=Ki meas_value=16.5
compound="CCN(CC)C(=O)c1ccc2c(c1)Oc1ccccc1C2=C1CC2CCC(C1)N2 (single isomer, unassigned) [Compound 53]" system_under_test="Rat brain delta opioid receptor (Rattus norvegicus, UniProt P33533)" assay_endpoint=Ki meas_value=50.1
compound=CCN(CC)C(=O)c1ccc2c(c1)Oc1ccccc1C2=C1CCN(CCO)CC1 system_under_test="Rat brain delta opioid receptor (Rattus norvegicus, UniProt P33533)" assay_endpoint=Ki meas_value=7.01
compound="CCN(CC)C(=O)c1ccc2c(c1)Sc1ccccc1C2=C1CC2CCC(C1)N2 (single isomer, unassigned) [Compound 61]" system_under_test="Rat brain delta opioid receptor (Rattus norvegicus, UniProt P33533)" assay_endpoint=Ki meas_value=133
compound=CCN(CC)C(=O)c1ccc2c(c1)Oc1ccccc1C2=C1CCN(C)CC1 system_under_test="Rat brain delta opioid receptor (Rattus norvegicus, UniProt P33533)" assay_endpoint=Ki meas_value=25.7

---

molecular target: human delta opioid receptor (Homo sapiens); construct: purchased Receptor Biology, Inc. (Baltimore, Md.); host or cells: CHO cells expressing the human delta receptor (membranes); assay: [35S]GTPγS binding assay in CHO-hδ cell membranes; format: biochemical; conditions: hDOR GTPγS EC50, human delta opioid receptor GTPγS functional assay
Sequence (P41143 whole entry): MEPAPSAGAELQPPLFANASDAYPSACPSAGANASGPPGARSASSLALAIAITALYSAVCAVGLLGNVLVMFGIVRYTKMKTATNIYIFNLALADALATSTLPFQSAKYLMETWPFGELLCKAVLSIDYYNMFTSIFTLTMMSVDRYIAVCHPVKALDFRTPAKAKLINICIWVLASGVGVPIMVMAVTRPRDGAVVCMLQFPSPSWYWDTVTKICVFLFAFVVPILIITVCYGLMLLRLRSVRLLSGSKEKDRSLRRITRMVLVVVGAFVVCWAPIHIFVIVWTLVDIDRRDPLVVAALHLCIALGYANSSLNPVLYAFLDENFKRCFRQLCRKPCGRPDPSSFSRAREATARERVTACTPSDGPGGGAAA
EC50 values for the molecules below.
assay-endpoint: EC50 (nM)

molecule="CCN(CC)C(=O)c1ccc2c(c1)Oc1ccccc1C2=C1CC2CCC(C1)N2CCSC [Compound 40]" system_under_test="human delta opioid receptor (Homo sapiens)" meas_value=267
molecule="CCN(CC)C(=O)c1ccc2c(c1)Oc1ccccc1C2=C1CC2CCC(C1)N2 [Compound 24]" system_under_test="human delta opioid receptor (Homo sapiens)" meas_value=10.2
molecule="C=CCN1C2CCC1CC(=C1c3ccccc3Oc3cc(C(=O)N(CC)CC)ccc31)C2 [Compound 38]" system_under_test="human delta opioid receptor (Homo sapiens)" meas_value=342

---

target: human mu opioid receptor (Homo sapiens, UniProt P35372); construct: purchased Receptor Biology, Inc. (Baltimore, Md.); host or cells: CHO cells expressing the human mu receptor (membranes); assay: [35S]GTPγS binding assay in CHO-hμ cell membranes; assay type: biochemical; conditions: inhibition relative to 1 uM DAMGO, read-out: hMOR GTPγS % I @10 μM
Sequence (P35372 whole entry): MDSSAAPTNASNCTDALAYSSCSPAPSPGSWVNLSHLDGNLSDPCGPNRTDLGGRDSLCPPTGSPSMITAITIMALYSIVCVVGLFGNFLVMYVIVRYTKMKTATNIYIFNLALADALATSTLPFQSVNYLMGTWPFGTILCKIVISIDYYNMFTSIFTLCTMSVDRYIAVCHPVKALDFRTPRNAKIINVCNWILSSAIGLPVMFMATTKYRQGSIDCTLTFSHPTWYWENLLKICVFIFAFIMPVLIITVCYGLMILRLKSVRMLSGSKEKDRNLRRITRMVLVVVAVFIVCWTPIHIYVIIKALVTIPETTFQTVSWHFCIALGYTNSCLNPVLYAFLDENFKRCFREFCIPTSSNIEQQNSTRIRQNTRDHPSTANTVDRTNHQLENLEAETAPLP
Param threshold (4%) applies to inhibition at 10 µM; output Met when value >= threshold, Not met when value < threshold.

compound="CCN(CC)C(=O)c1ccc2c(c1)Oc1ccccc1C2=C1CCN(Cc2ccoc2)CC1 [Compound 28]" system_under_test="human mu opioid receptor (Homo sapiens, UniProt P35372)" class_name=Met
compound="C=CCN1CCC(=C2c3ccccc3Oc3cc(C(=O)N(CC)CC)ccc32)CC1 [Compound 8]" system_under_test="human mu opioid receptor (Homo sapiens, UniProt P35372)" class_name="Not met"
compound="CCN(CC)C(=O)c1ccc2c(c1)Oc1ccccc1C2=C1CC2CCC(C1)N2 [Compound 24]" system_under_test="human mu opioid receptor (Homo sapiens, UniProt P35372)" class_name="Not met"
compound="CCN(CC)C(=O)c1ccc2c(c1)Oc1ccccc1C2=C1CCN(C=S)CC1 [Compound 37]" system_under_test="human mu opioid receptor (Homo sapiens, UniProt P35372)" class_name=Met
compound="CCN(CC)C(=O)c1ccc2c(c1)Oc1ccccc1C2=C1CCN(C)CC1 [Compound 7]" system_under_test="human mu opioid receptor (Homo sapiens, UniProt P35372)" class_name="Not met"
compound="CCN(CC)C(=O)c1ccc2c(c1)Oc1ccccc1C2=C1CCN(Cc2ccccc2O)CC1 [Compound 30]" system_under_test="human mu opioid receptor (Homo sapiens, UniProt P35372)" class_name=Met
compound="CCN(CC)C(=O)c1ccc2c(c1)Oc1ccccc1C2=C1CCN(C=Nc2ccccc2)CC1 [Compound 36]" system_under_test="human mu opioid receptor (Homo sapiens, UniProt P35372)" class_name=Met
compound="CCN(CC)C(=O)c1ccc2c(c1)Oc1ccccc1C2=C1CC2CCC(C1)N2Cc1ccccn1 [Compound 44]" system_under_test="human mu opioid receptor (Homo sapiens, UniProt P35372)" class_name=Met
